# System: Wolbachia pipientis
# testDetails: Anti-Wolbachia Cell-Based Screen
# Format: functional
# Parameters: scale not given: in the data most compounds retested in dose-response had high values
# runParameters: 5 µM
The whole screen tested about 48,000 compounds, of which about 13,000 (27%) showed an effect of 50% or more. This is one part of the list.

molecule | Percent Effect [%]
COCCc1noc(CN2CCCC2Cn2nc(C)cc2C)n1 (stereo unspecified) | 100.2
O=C(O)C(F)(F)F.O=C1COC2(CCN(c3ccccn3)CC2)CN1 | -3.085
COCCc1noc(CN2CC(n3nc(C)cc3C)C2)n1 | 87.49
Cc1cc(C)n(CC2CCCN2Cc2c(C)noc2C)n1 (stereo unspecified) | 3.056
Cc1nc(C)n(CC2CCCN2Cc2nc(C3CC3)no2)n1 (stereo unspecified) | 2.651
Cc1cc(CN(C)CCN(C)c2ccccc2)no1 | 9.198
Cc1nc(CC2CCCN(Cc3nc(N)c4ccccc4n3)C2)no1 (stereo unspecified) | -1.933
Cn1ccnc1CN1CCC2(CC1)CN(c1ccccn1)CCO2.O=C(O)C(F)(F)F.O=C(O)C(F)(F)F | -7.538
O=C(NCC1CCCN(Cc2cccc3nonc23)C1)c1ccc[nH]1 (stereo unspecified) | 22.2
CN1C(=O)CC(c2ccncc2)C12CCN(c1ncccn1)CC2.O=C(O)C(F)(F)F (stereo unspecified) | -40.6
O=C(O)C(F)(F)F.O=C1COC2(CCN(c3ncccn3)CC2)CN1 | 1.956

The measured values listed here are drawn from ChEMBL document CHEMBL3988442.
